- Test system: MCF7
- run.description: Growth inhibition of human MCF7 cells after 48 hrs by MTS assay
- Format: functional, cell-based
- recorded.conditions: MCF7, 48 h
pIC50: −log10 of the molar value.
measurement.type: pIC50

input.smiles	measurement.type	observed
C=C1[C@@H]2CC(=O)c3cc(C(C)C)c(O)cc3[C@@]2(C)CC(=O)[C@]12CCC1=C(C2)[C@@H]2CC(=O)c3cc(C(C)C)c(O)cc3[C@@]2(C)C[C@@H]1O	pIC50	5.05
